For LHRH binding sites on human ovarian cancer cells (EFO-27), measured pEC50 is reported for the entries below.
Non-standard residues stand in square brackets, D forms with d. Residues, ends and D or L forms follow the SMILES beside them. *: point of attachment. DOTA = O=C(O)CN1CCN(CC(=O)O)CCN(CC(=O)*)CCN(CC(=O)O)CC1; Bpa = N[C@@H](Cc1ccc(C(=O)c2ccccc2)cc1)C(=O)O; Ala(4-thiazolyl) = N[C@@H](Cc1cscn1)C(=O)O; d2Nal = N[C@H](Cc1ccc2ccccc2c1)C(=O)O; azaGly = NNC(=O)O; Sar = CNCC(=O)O
FYI, pEC50 means -log10 of a concentration in mol per litre.

[[record]]
molecule = "N=C(N)NCCC[C@H](NC(=O)[C@H](CO)NC(=O)[C@H](Cc1c[nH]c2ccccc12)NC(=O)[C@H](CCCNC(=N)N)NC(=O)[C@@H](Cc1ccc2ccccc2c1)NC(=O)CN1CCN(CC(=O)O)CCN(CC(=O)O)CCN(CC(=O)O)CC1)C(=O)N[C@H](Cc1c[nH]c2ccccc12)C(=O)N[C@@H](Cc1c[nH]c2ccccc12)C(=O)N[C@@H](Cc1ccc(C(=O)c2ccccc2)cc1)C(=O)N1CCC[C@H]1C(=O)NNC(N)=O [compound 3001] ({DOTA}-[d2Nal]RWSR[dW]W[Bpa]P[azaGly]-NH2)"
reading = 5.48

[[record]]
molecule = "CNCC(=O)N[C@@H](CCCNC(=N)N)C(=O)N[C@@H](Cc1c[nH]c2ccccc12)C(=O)N[C@@H](CO)C(=O)N[C@@H](Cc1c[nH]cn1)C(=O)N[C@H](CCCNC(=N)N)C(=O)N[C@@H](Cc1c[nH]c2ccccc12)C(=O)N[C@@H](Cc1ccc(C(=O)c2ccccc2)cc1)C(=O)N1CCC[C@H]1C(=O)NCCCCCNC(=O)CN1CCN(CC(=O)O)CCN(CC(=O)O)CCN(CC(=O)O)CC1 [compound 3085]"
reading = 6.40

[[record]]
molecule = "N=C(N)NCCC[C@H](NC(=O)[C@@H](Cc1ccc2ccccc2c1)NC(=O)CN1CCN(CC(=O)O)CCN(CC(=O)O)CCN(CC(=O)O)CC1)C(=O)N[C@@H](Cc1c[nH]c2ccccc12)C(=O)N[C@@H](CO)C(=O)N[C@@H](Cc1c[nH]cn1)C(=O)N[C@H](CCCNC(=N)N)C(=O)N[C@@H](Cc1c[nH]c2ccccc12)C(=O)N[C@@H](Cc1ccc(C(=O)c2ccccc2)cc1)C(=O)N1CCC[C@H]1C(=O)N[C@H](CO)Cc1ccccc1"
reading = 6.35


Lookup: Look up pEC50 with LHRH binding sites on human ovarian cancer cells (EFO-27) for this molecule: CN(CC(=O)N[C@@H](Cc1cscn1)C(=O)N[C@@H](Cc1c[nH]c2ccccc12)C(=O)N[C@@H](CO)C(=O)N[C@@H](Cc1c[nH]cn1)C(=O)N[C@H](CCCNC(=N)N)C(=O)N[C@@H](Cc1c[nH]c2ccccc12)C(=O)N[C@@H](Cc1ccc(C(=O)c2ccccc2)cc1)C(=O)N1CCC[C@H]1C(=O)NNC(N)=O)C(=O)CN1CCN(CC(=O)O)CCN(CC(=O)O)CCN(CC(=O)O)CC1 [BRU-2768] ({DOTA}-[Sar][Ala(4-thiazolyl)]WSH[dR]W[Bpa]P[azaGly]-NH2)
Found: 4.89

The measurements presented in this section are drawn from patent US20120045393A1.
